assay_target: UniProt P21453
assay_text: direct activation of human S1P1 – cell-based, agonist mode, 60K MLSMR set, dose response (AID 468)
measured_parameter: EC50 (µM)
Provide the reading as a plain figure in µM.

# molecule Clc1ccc(-n2nnnc2Sc2ncnc3sccc23)cc1 [SMR000066808] ; its EC50 = 6.39

# molecule `COc1cccc2sc(Nc3nc(-c4ccccn4)cs3)nc12` ; its EC50 = 2.75

# molecule COc1ccccc1OCc1nc(C#N)c(N2CC(C)CC(C)C2)o1 (configuration not stated) ; its EC50 = 4.02

# molecule `Oc1c(Cl)cc(Cl)cc1Sc1cc(Cl)cc(Cl)c1O` ; its EC50 = 1.02

# molecule `COc1ccc(/N=c2\scc(-c3ccc(S(=O)(=O)N4CCOCC4)cc3)n2CCCO)cc1` ; its EC50 = 13.2

# molecule COc1cc(-c2noc(C3CCCN(S(=O)(=O)c4cccc(Cl)c4)C3)n2)cc(OC)c1OC (configuration not stated) ; its EC50 = 3.83

# molecule CCOc1ccccc1OCCCCCc1c(C)n[nH]c1C [MLS000043342] ; its EC50 = 1.56

# molecule `Cc1ccc(C(=O)c2cncc(Br)c2)cc1` ; its EC50 = 9.76

# molecule `COc1ccc(-c2nc(-c3cccc(C)c3)no2)cc1OC` ; its EC50 = 1.48

# molecule `Cc1ccc2nc(C(F)(F)F)c(C#N)c(N)c2c1` ; its EC50 = 7.58

# molecule CC(=N)C(C#N)C(=O)CSc1nc2cc(Cl)ccc2s1 (configuration not stated) ; its EC50 = 15.6

# molecule `COc1ccc(-c2n[nH]cc2-c2ccc3c(c2)OCCO3)c(O)c1` ; its EC50 = 0.986

# molecule CC(C)(C)OC(=O)N[C@@H](Cc1ccccc1)c1nnc(S(=O)(=O)Cc2ccccc2)o1 [SMR000047857] ; its EC50 = 4.1

# molecule CCCn1c(NC(=O)c2cccc(S(=O)(=O)N3CCCC3)c2)nc2ccccc21 [MLS000057540] ; its EC50 = 8.82

# molecule `O=C(Nc1ccc(N2CCCC2)c(Cl)c1)c1ccc(Br)o1` ; its EC50 = 4.15

# molecule `CCOc1ccc(-c2noc(-c3ccncc3)n2)cc1OCC` ; its EC50 = 0.613

# molecule CC(C)(C)C1CCC2(CC1)C(C#N)=C(SCC(=O)Nc1ccccc1)NC(=O)C2C#N (configuration not stated) ; its EC50 = 4.92

# molecule `c1ccc(CSc2nnc(-c3c[nH]c4ccccc34)o2)cc1` ; its EC50 = 1.95

# molecule `CCOc1ccc(-c2noc(-c3cccnc3)n2)cc1OC` ; its EC50 = 1.2

# molecule `Fc1ccc(COc2ccc(C=Nn3cnnc3)cc2)cc1` ; its EC50 = 8.28

# molecule Cc1ccc2c(c1)[nH]c1c(N3CCN(Cc4ccccc4)CC3)ncnc12 [SMR000044826] ; its EC50 = 3.27

# molecule CCOc1cc(C2NCc3ccccc3-n3cccc32)ccc1O (configuration not stated) ; its EC50 = 16.1

# molecule `CCCc1ccc(Oc2c[nH]nc2-c2ccc(O)cc2O)cc1` ; its EC50 = 15.5

# molecule CCCN(C(=O)c1cccs1)c1nnc(-c2ccncc2)s1 [MLS000074637] ; its EC50 = 3.38

# molecule Cc1nn(Cc2ccc(Cl)c(Cl)c2)c(C)c1NC(=O)c1cc(CC(C)C)on1 [MLS000116412] ; its EC50 = 9.16

# molecule `Cc1cccc(N2CCN(C(=O)CSCc3c(C)noc3C)CC2)c1C` ; its EC50 = 4.52

# molecule COc1ccc2c(c1)CCc1c(C(=O)Nc3ccc(OC)c(OC)c3)noc1-2 [MLS000087452] ; its EC50 = 3.3

# molecule CCCc1ccc(Oc2c[nH]nc2-c2ccc(O)c(C)c2O)cc1 [SMR000024172] ; its EC50 = 12.9

# molecule `C=C(C)COc1ccc(-c2nc(N)nc(C)c2Oc2ccccc2OC)c(O)c1` ; its EC50 = 3.8

====

Please respond with reported EC50 for every item in the list.
assay_target: Sphingosine 1-phosphate receptor 1 (Homo sapiens, UniProt P21453)
Sequence (P21453 whole entry): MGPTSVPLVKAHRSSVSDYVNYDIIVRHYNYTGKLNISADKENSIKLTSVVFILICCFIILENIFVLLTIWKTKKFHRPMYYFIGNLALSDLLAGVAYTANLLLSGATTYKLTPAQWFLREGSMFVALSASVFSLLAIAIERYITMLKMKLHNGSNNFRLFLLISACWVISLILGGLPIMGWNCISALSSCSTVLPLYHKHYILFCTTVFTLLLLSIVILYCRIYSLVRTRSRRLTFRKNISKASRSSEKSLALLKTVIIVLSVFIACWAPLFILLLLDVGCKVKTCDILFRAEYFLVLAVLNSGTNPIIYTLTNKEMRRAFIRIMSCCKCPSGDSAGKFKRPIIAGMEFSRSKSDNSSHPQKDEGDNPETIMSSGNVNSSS
assay_text: direct activation of human S1P1 – cell-based, agonist mode, 60K MLSMR set, dose response (AID 468)
Provide the reading as a plain figure in µM.

# compound `Cc1cc(C(=O)N2CCN(C(c3ccccc3)c3ccccc3)CC2)on1` ; its EC50 = 5.8

# compound `COC(=O)CS(=O)(=O)c1nnc([C@H](Cc2ccccc2)NC(=O)OC(C)(C)C)o1` ; its EC50 = 6.99

# compound `CC(=O)Oc1ccc(-n2c(O)c3c(c2O)C2(C)C=CC3(C)O2)cc1` ; its EC50 = 11.8

# compound `COCCN(C(=O)c1ccccc1)c1nnc(-c2cccnc2)s1` ; its EC50 = 6.68

# compound `c1ccc2c(c1)oc1c(N3CCN(Cc4ccc5c(c4)OCO5)CC3)ncnc12` ; its EC50 = 6.14

# compound CCCCn1ccnc1C(=O)c1cccc(S(=O)(=O)N2c3ccccc3CC2C)c1 (configuration not stated) ; its EC50 = 9.34

# compound `N#CCCS(=O)(=O)c1nnnn1-c1ccccc1` ; its EC50 = 3.66

# compound `Cc1cc(C)n2nc(SCC(=O)c3cc(C)n(-c4cc(C)on4)c3C)nc2n1` ; its EC50 = 4.18

# compound `Oc1ccc(N2CCN(c3ncnc4sc5c(c34)CCC5)CC2)cc1` ; its EC50 = 9.07

# compound `COc1ccc(-n2nc3ccc(NS(C)(=O)=O)cc3n2)cc1Cl` ; its EC50 = 0.148

# compound `Cc1cccc(OCCCCc2c(C)n[nH]c2C)c1C` ; its EC50 = 4.96

# compound `O=C(Nc1c(F)cc(F)cc1Br)c1cc(-c2ccc(O)cc2)on1` ; its EC50 = 2.37

# compound `CCc1ccc(NC(=O)c2cc(-c3ccco3)on2)cc1` ; its EC50 = 6.93

# compound `COc1ccc(N2CCn3c2nc2c3c(=O)n(CCCc3ccccc3)c(=O)n2C)c(OC)c1` ; its EC50 = 5.83

# compound `O=C(Nc1ccccc1C(F)(F)F)c1cc(-c2ccc(O)cc2)on1` ; its EC50 = 0.964

# compound `CC(C)c1ccc2oc(-c3cc(N)ccc3O)nc2c1` ; its EC50 = 9.37

# compound CCC(NC(C)c1ccccc1)=C1C(=O)N(C)C(=O)N(C)C1=O (configuration not stated) ; its EC50 = 13.6

# compound `Cc1ccc(S(=O)(=O)Nc2cccc3ncccc23)s1` ; its EC50 = 9.62

# compound `COc1ccc(-n2nnnc2S(=O)(=O)CC(=O)N2CCCCC2)cc1` ; its EC50 = 5.25

# compound `COc1ccc(S(=O)(=O)N2CCN(c3ccc(C)cc3C)CC2)cc1OC` ; its EC50 = 6.58

# compound `O=S(=O)(Nc1ccc2c(c1)OCCO2)c1ccc2oc3ccccc3c2c1` ; its EC50 = 7.68

# compound `NC(=Nc1nc2c(c(=O)[nH]1)CCCC2)Nc1ccccc1` ; its EC50 = 7.23

# compound `Cc1cc(C(=O)CSc2nnc(-c3cccnc3)n2-c2ccccc2F)c(C)n1C` ; its EC50 = 0.817

# compound `Cc1oc2cc(O)cc(O)c2c(=O)c1-c1ccc2c(c1)OCCCO2` ; its EC50 = 4.54

# compound `Cc1ccccc1CS(=O)(=O)c1nnc([C@H](CC(C)C)NC(=O)OC(C)(C)C)o1` ; its EC50 = 7.51

# compound `Cn1c(SCC(=O)Nc2ccc(N3CCOCC3)c(Cl)c2)nnc1-c1ccccc1` ; its EC50 = 2.22

# compound `Cc1ccccc1-c1noc(-c2ccc(O)cc2)n1` ; its EC50 = 8.46

# compound `O=C(CCN1CCc2ccccc2CC1)c1ccc2c(c1)OCCO2` ; its EC50 = 10.5

# compound CCC1CCCCN1C(=O)CSc1nnc(-c2c[nH]c3ccccc23)o1 (configuration not stated) ; its EC50 = 5.9

# compound `CC(C)(C)NC(=O)CSc1ncnc2c1nnn2Cc1ccccc1Cl` ; its EC50 = 9.4

# compound O=S(=O)(c1cccs1)N1CCN(CC(O)COc2cc(Cl)ccc2Cl)CC1 (configuration not stated) ; its EC50 = 4.2

# compound `COC(=O)c1ccc2c(=O)n(C3CCCCC3)c(SCC#N)nc2c1` ; its EC50 = 9.9

# compound `COc1ccc(-c2noc(-c3cc(C)cc(C)c3)n2)cc1OC` ; its EC50 = 1.23

# compound `CCCCOc1ncnc2c1[nH]c1ccccc12` ; its EC50 = 4.18

# compound `C=CCn1c(C)cc(C(=O)CSc2nc3ccccc3o2)c1C` ; its EC50 = 9.52

====

assay_target: Sphingosine 1-phosphate receptor 1 (Homo sapiens, UniProt P21453)
assay_text: direct activation of human S1P1 – cell-based, agonist mode, 60K MLSMR set, dose response (AID 468)
condition_info: inactive by the depositor's call
measured_parameter: EC50 (µM)
Provide the reading as a plain figure in µM.

# compound `CCOC(=O)Cc1csc(NC(=O)c2ccc(Br)s2)n1` ; its EC50 = 13.8

# compound `CC(C)(CC(=O)N1CCN(c2ccc(Cl)cc2)CC1)CC1=NS(=O)(=O)c2ccccc2N1` ; its EC50 = 10.5

# compound `O=C(Nc1ccc(Oc2ccccc2)cc1)c1cnc2n(c1=O)CCS2` ; its EC50 = 16.6

# compound O=C(C1CC1)N1CCc2cc(S(=O)(=O)NCC3COc4ccccc4O3)ccc21 (stereo not given) ; its EC50 = 14

# compound `CN1CCN(C(=O)CSc2nc(-c3cccs3)cc(-c3cccs3)c2C#N)CC1` ; its EC50 = 10.1
